Molecular target: ATP-dependent translocase ABCB1 (Homo sapiens)
Sequence (P08183 whole entry): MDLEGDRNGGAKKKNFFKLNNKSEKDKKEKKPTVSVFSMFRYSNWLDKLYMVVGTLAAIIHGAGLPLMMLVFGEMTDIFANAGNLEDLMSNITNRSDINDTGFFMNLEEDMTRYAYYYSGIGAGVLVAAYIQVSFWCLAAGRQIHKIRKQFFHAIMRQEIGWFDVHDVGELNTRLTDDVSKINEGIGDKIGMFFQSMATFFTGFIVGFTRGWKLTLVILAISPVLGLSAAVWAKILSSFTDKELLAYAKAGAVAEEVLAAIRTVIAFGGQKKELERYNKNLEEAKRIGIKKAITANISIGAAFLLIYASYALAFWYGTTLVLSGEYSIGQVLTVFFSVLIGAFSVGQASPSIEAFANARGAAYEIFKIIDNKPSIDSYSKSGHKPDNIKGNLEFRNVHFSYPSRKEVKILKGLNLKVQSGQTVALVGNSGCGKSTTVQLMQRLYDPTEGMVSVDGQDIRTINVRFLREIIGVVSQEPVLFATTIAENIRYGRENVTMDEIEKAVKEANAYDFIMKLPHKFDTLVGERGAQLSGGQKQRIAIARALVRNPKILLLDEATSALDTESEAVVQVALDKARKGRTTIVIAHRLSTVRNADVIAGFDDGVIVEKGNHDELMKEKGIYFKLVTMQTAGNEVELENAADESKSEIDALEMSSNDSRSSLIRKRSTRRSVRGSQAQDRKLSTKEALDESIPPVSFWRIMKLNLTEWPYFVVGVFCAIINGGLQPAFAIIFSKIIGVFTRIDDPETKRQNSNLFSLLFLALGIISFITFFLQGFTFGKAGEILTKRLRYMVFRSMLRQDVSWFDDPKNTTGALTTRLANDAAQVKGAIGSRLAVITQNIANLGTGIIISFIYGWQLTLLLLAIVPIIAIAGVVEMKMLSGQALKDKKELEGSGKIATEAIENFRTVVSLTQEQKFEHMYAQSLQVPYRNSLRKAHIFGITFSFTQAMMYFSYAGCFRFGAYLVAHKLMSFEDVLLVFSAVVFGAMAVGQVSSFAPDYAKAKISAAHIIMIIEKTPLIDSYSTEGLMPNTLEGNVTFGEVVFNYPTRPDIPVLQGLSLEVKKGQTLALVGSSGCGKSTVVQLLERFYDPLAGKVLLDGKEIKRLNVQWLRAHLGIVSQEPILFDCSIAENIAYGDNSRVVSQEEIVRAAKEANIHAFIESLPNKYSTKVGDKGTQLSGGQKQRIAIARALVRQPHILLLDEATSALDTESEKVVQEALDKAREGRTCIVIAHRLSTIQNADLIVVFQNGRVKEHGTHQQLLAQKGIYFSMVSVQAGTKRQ
Assay: Inhibition of ABCB1 in human K562/A02 cells assessed as potentiation of adriamycin-induced cytotoxicity by measuring reduction in ADR IC50 at 5 uM measured after 48 hrs by MTT assay relative to ADR alone
Type: cell-based
Kindly supply the reported fold change (FC) values for the records listed here.

COc1cc2c(cc1OC)CN(CCn1cc(COc3ccccc3C(=O)Nc3ccccc3[N+](=O)[O-])nn1)CC2; 3.6
COc1cc2c(cc1OC)CN(CCn1cc(COc3ccccc3C(=O)Nc3ccc([N+](=O)[O-])cc3)nn1)CC2; 4.6
COc1cccc(NC(=O)c2ccccc2OCc2cn(CCN3CCc4cc(OC)c(OC)cc4C3)nn2)c1; 5.6 to 11.1
COc1cc2c(cc1OC)CN(CCn1cc(COc3ccccc3NC(=O)c3ccc(C(C)(C)C)cc3)nn1)CC2; 28.2
COc1cc2c(cc1OC)CN(CCn1cc(COc3ccccc3C(=O)Nc3ccc(F)cc3)nn1)CC2; 11.7

# map each compound to its fold change (FC)
1. COc1cc2c(cc1OC)CN(CCn1cc(COc3ccccc3C(=O)Nc3ccccc3C)nn1)CC2
2. COc1cc2c(cc1OC)CN(CCn1cc(COc3ccccc3C(=O)Nc3ccc(C)cc3)nn1)CC2
3. COc1ccc(NC(=O)c2ccccc2OCc2cn(CCN3CCc4cc(OC)c(OC)cc4C3)nn2)cc1OC
4. COc1cc2c(cc1OC)CN(CCn1cc(COc3ccccc3C(=O)Nc3ccc(OC(F)(F)F)cc3)nn1)CC2
5. COc1cc2c(cc1OC)CN(CCn1cc(COc3ccccc3C(=O)Nc3cc(OC)c(OC)c(OC)c3)nn1)CC2
6. COc1cc2c(cc1OC)CN(CCn1cc(COc3ccccc3C(=O)Nc3cccc(C)c3)nn1)CC2
7. COc1cc2c(cc1OC)CN(CCc1ccc(NC(=O)c3cc(OC)c(OC)cc3NC(=O)c3cnc4ccccc4c3)cc1)CC2
8. COc1cc2c(cc1OC)CN(CCn1cc(COc3ccccc3C(=O)Nc3cccc(Cl)c3)nn1)CC2

Result ::
4.4
12.6
12.4
21.4
3
8
49.1
4.3
